Biological target: T1, human VEGF165 (human, UniProt P15692)
T1 chain: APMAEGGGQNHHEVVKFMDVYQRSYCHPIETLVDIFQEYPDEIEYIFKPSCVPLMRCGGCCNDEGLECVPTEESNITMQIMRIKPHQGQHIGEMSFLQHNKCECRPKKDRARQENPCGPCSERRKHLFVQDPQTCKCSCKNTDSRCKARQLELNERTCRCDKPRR
Assay: SPR, pH 7.4
READOUT KIND: pKd
Please report pKd as the negative decimal logarithm of the molar concentration, giving only the number.

>>> result_number("567-max (antibody, V domains shown) VH: EVQLVESGGGLVQPGGSLRLSCSVSGFSLSDYYMCWVRQAPGKGLEWVGCLDYFGSTDDASWAKGRFTISKDTSKNTVYLQMNSLRAEDTAVYYCARTDDSRGWGLNIWGQGTLVTVSS VL: EIVMTQSPSTLSASVGDRVIITCQADQSIYIWLSWYQQKPGKAPKLLIYKASTLESGVPSRFSGSGSGTQFTLTISSLQPDDFATYYCQNNAHYSTNGGTFGQGTKLTVLG")
9.84
>>> result_number("567-min (antibody, V domains shown) VH: EVQLVESGGGLVQPGGSLRLSCAASGFSLSDYYMCWVRQAPGKGLEWVSCLDYFGSTDDASWAKGRFTISRDNSKNTLYLQMNSLRAEDTAVYYCAKTDDSRGWGLNIWGQGTLVTVSS VL: EIVMTQSPSTLSASVGDRVIITCQADQSIYIWLSWYQQKPGKAPKLLIYKASTLESGVPSRFSGSGSGAEFTLTISSLQPDDFATYYCQNNAHYSTNGGTFGQGTKLTVLG")
9.20

Problem: Give me measured pKd, please, for this binder: 511-max (antibody, V domains shown) VH: EVQLVESGGGLVQPGGSLRLSCTVSGFSLNTYYMNWVRQAPGKGLEWVGIIAPDDTTYYASWAKSRSTISRDTSKNTVYLQMNSLRAEDTAVYYCARSGDTTAWGADIWGQGTLVTVSS VL: EIVMTQSPSTLSASVGDRVIITCQASQSINIWLSWYQQKPGKAPKLLIYRASTLASGVPSRFSGSGSGTEFTLTISSLQPDDFATYYCQANYAYSAGYGAAFGQGTKLTVLG
Result: 10.07
